Where these numbers come from: ChEMBL document CHEMBL1153368

Provide the recorded inhibition in vivo at 100 mg/kg for the entries that follow.
Tested on: Mus musculus
assay.explanation: Antiinflammatory activity in Albino mouse assessed as inhibition of carrageenan-induced foot paw edema at 100 mg/kg, po administered 1 hr before carrageenan challenge measured after 2 hrs
Format: functional
Give a bare numeral; the unit % is implied.

Data request: Item "CCCCC1C(=O)N(c2ccccc2)N(c2ccccc2)C1=O" has what recorded inhibition in vivo at 100 mg/kg?
Data returned: 53.3

Data request: Need inhibition in vivo at 100 mg/kg of "Cc1cc(C(=O)c2ccc(Cl)cc2Cl)ccc1OCCN1CCCCC1" , thanks.
Data returned: 68.7

Data request: # get_value(readout='inhibition in vivo at 100 mg/kg', item= "Cc1cccc(C(=O)c2ccc(OCCN3CCCCC3)c(C)c2)c1" )
Data returned: 15.4

Data request: Name the reported inhibition in vivo at 100 mg/kg value associated with the molecule "Cc1cc(C(=O)c2ccc(F)cc2)ccc1OCCN1CCCCC1"
Data returned: 60.6

Data request: Entry "Cc1cc(C(=O)c2ccccc2C)ccc1OCCN1CCCCC1" has what inhibition in vivo at 100 mg/kg?
Data returned: 35.6

Data request: Consider the molecule shown here: "COc1ccc(C(=O)c2ccc(OCCN3CCCCC3)c(C)c2)cc1" What is its recorded inhibition in vivo at 100 mg/kg?
Data returned: 51.4

Data request: So what's the measured inhibition in vivo at 100 mg/kg for this one? "Cc1cc(C(=O)c2ccccc2)ccc1OCCN1CCCCC1"
Data returned: 22.4

Data request: # query: inhibition in vivo at 100 mg/kg of entry "Cc1cc(C(=O)c2ccccc2Br)ccc1OCCN1CCCCC1"
Data returned: 51.4

Data request: For "Cc1cc(C(=O)c2ccc(Br)cc2)ccc1OCCN1CCCCC1" , what is its reported inhibition in vivo at 100 mg/kg?
Data returned: 67.5

Data request: inhibition in vivo at 100 mg/kg for "Cc1cc(C(=O)c2cccc(Cl)c2)ccc1OCCN1CCCCC1" ?
Data returned: 51.4
